testedSystem: GlcNAc(a1-6)Gal(b1-4)GlcNAc
assayComment: glycan array binding signal (z-score within array); higher = stronger binding
experimentalParameters: glycan notation: IUPAC condensed, linker removed
The sample as a whole holds a higher share of the strongest signals than the screen did.
resultType: glycan array binding signal (z-score)
Lab note: jot down the number only; don't add units.

The following binders have reported results that may help.
INSERT INTO measurements (binder, resulttype, measvalue) VALUES
  ('VLRB.aGPA.23-GCN4-biotin (Petromyzon marinus) (protein) ACPSQCSCSGTEVNCAGKSLASVPAGIPTTTRVLYLNSNQITKLEPGVFDRLANLRELHLWGNQLVSLPPGVFDNLANLEKLWLNSNQLTSLPAGLFDRLVNLEHLGLCCMKLTELPSGAFDKLTRLKQLGLDQNQLKSIPDGAFARLPSLTHVWLHTNPWDCQCTDILYLSGWVAQHSSIVGEGWPWRHSPDSAKCSGTNTPVRAVTEASTSPSKCP', 'glycan array binding signal (z-score)', -0.087),
  ('EUL D1A (Oryza sativa) (protein) MFGFGHHHNQAPAAPSDPNQIFKIFCRANENYCLTVRDSAVVLAPVNPKDEHQHWFKDMRFSTKVKDGEGMPAFALVNKATGLAVKHSLGQSHPVKLVPFNPEYEDASVLWTESKDVGKGFRCIRMVNNTRLNLDAFHGDKDHGGVRDGTTVVLWEWCKGDNQSWKILPWGPEAHSSSPGAATACTIGGVPVHTVRVFSAAGEDYCLTVRNGTACLAPKNPRDDYQHWIKDMRHSNKIRDEEGYPAFALVNKVTGEAIKHSTGQGHPVKLVPYNPEYQDESVLWTESKDVGKGFRCIRMVNNIYLNFDAFHGDKDHGGIHDGTEIVLWKWCEGDNQRWKILPWILEQKLISEEDLNSAVDHHHHHH', 'glycan array binding signal (z-score)', 2.67),
  ('DCL-1 (Homo sapiens), Q8IX05 (protein) MLRAALPALLLPLLGLAAAAVADCPSSTWIQFQDSCYIFLQEAIKVESIEDVRNQCTDHGADMISIHNEEENAFILDTLKKQWKGPDDILLGMFYDTDDASFKWFDNSNMTFDKWTDQDDDEDLVDTCAFLHIKTGEWKKGNCEVSSVEGTLCKTAIPYKRKYLSDNHILISALVIASTVILTVLGAIIWFLYKKHSDSRFTTVFSTAPQSPYNEDCVLVVGEENEYPVQFD', 'glycan array binding signal (z-score)', 6.83),
  ('Protectin (Homo sapiens), P13987 (protein) MGIQGGSVLFGLLLVLAVFCHSGHSLQCYNCPNPTADCKTAVNCSSDFDACLITKAGLQVYNKCWKFEHCNFNDVTTRLRENELTYYCCKKDLCNFNEQLENGGTSLSEKTVLLLVTPFLAAAWSLHP', 'glycan array binding signal (z-score)', -0.166);

Please turn your attention to the following entry.
# binder Crocus Lectin (Crocus vernus), Q9FVA1 (protein) MAKSLVLSSLLLALLLAAPLASLADNNVLLTGDVLHTDNQLSFESAAFVMQGDCNLVLYNEAGGFQSNTHGRGVGCTLRLNNFGQLEIHSANSNTPVWVSLRNGIPVRGDYAAVLGPDQHVTIYGPAIWSTPAPNRHERGATVSNIPRVRNVLFSSQVMSDNAQLATRDYSLVMRDDCNLALTKGSKTNIVWESGTSGRGQHCFMRLGHTGLIEISDDRLNTVWRSNTVGQEGDYVLILQINGQAVVYGPAVWSTASPARGGASAAL ; its glycan array binding signal (z-score) = -0.196
